All values here come from ChEMBL document CHEMBL1122794.

Listed molecules paired with reported pA2
target: Adrenergic receptor beta (Homo sapiens, UniProt P08588+P07550+P13945); experiment: In vitro blocking of beta adrenergic receptor in guinea pig trachea; format: tissue-based, Cavia porcellus; settings: target entry is the homologue from another species
Measured Quantity: pA2

COc1ccccc1COC(=O)C(O)CNCCc1ccc(OC)c(OC)c1 (stereo unspecified)    5
CC(C)NCC(O)COC(=O)c1ccc2ccccc2c1 (stereo unspecified)    6.6
CC(C)(CNC(=O)C1CCCCC1)NCC(O)COC(=O)c1ccccc1F (stereo unspecified)    7.2
Cc1ccccc1C(=O)OCC(O)CNC(C)C (stereo unspecified)    7.1
CC(C)(C)NCC(O)COC(=O)c1ccccc1 (stereo unspecified)    7.7
Cc1ccc(C(=O)OCC(O)CNC(C)C)cc1 (stereo unspecified)    6.8

----------
assay: Selectivity determined by expression 10[pA2(atria) - pA2 (trachea)] in guinea pig; assay type: functional, Cavia porcellus
Define the label as true when Selectivity is strictly less than -2 and as false in all remaining cases.

COc1ccc(CCNCC(O)COC(=O)c2ccccc2)cc1OC (stereo unspecified)    false
CC(C)(C)NCC(O)COC(=O)c1ccccc1F (stereo unspecified)    true
CNC(=O)NCC(C)(C)NCC(O)COC(=O)c1ccccc1F (stereo unspecified)    true
CC(C)NCC(O)COC(=O)c1ccc(N)cc1 (stereo unspecified)    false
CC(C)(C)NCC(O)COC(=O)c1cccc2ccccc12 (stereo unspecified)    true
Cc1ccccc1OCC(O)CNC(C)C (stereo unspecified)    false
CC(C)(CNC(=O)Cc1ccccc1)NCC(O)COC(=O)c1ccccc1F (stereo unspecified)    true
CC(C)NCC(O)COc1ccccc1 (stereo unspecified)    false
CC(C)(C)NCC(O)COC(=O)c1ccc(N)cc1 (stereo unspecified)    false
CC(C)(C)NCC(O)COC(=O)c1ccccc1O (stereo unspecified)    true
COc1ccc(CCNCC(O)COC(=O)c2ccc(N)cc2)cc1OC (stereo unspecified)    false
CC(C)NCC(O)COC(=O)c1ccc(F)cc1 (stereo unspecified)    true
CC(C)(CNS(=O)(=O)c1ccccc1)NCC(O)COC(=O)c1ccccc1F.O=C(O)C(=O)O (stereo unspecified)    false
CC(C)(C)NCC(O)COC(=O)c1ccc(F)cc1 (stereo unspecified)    true
Cc1cc(N)ccc1C(=O)OCC(O)CNC(C)(C)C (stereo unspecified)    true
CC(C)(C)NCC(O)COC(=O)c1cccc(N)c1 (stereo unspecified)    true
COc1ccc(CCNCC(O)COC(=O)c2cccc(F)c2)cc1OC (stereo unspecified)    false
CC(C)NCC(O)COC(=O)c1cccc(N)c1 (stereo unspecified)    true
Cc1ccccc1C(=O)OCC(O)CNC(C)C (stereo unspecified)    true
COCCOC(=O)NCC(C)(C)NCC(O)COC(=O)c1ccccc1F (stereo unspecified)    false
C#CC(C)(C)NCC(O)COC(=O)c1ccccc1F (stereo unspecified)    false

----------
experiment: Selectivity determined by expression 10[pA2(atria) - pA2 (trachea)] in guinea pig; assay type: functional, Cavia porcellus
Reported Selectivity by item:
Measured Quantity: Selectivity

CN(C)S(=O)(=O)NCC(C)(C)NCC(O)COC(=O)c1ccccc1F (stereo not given)    1
COc1ccc(CCNCC(O)COC(=O)c2ccccc2Cl)cc1OC (stereo not given)    2
C=CCOc1cccc(C(=O)OCC(O)CNC(C)C)c1 (stereo not given)    1
Cc1cc([N+](=O)[O-])ccc1C(=O)OCC(O)CNC(C)(C)C (stereo not given)    -5
CC(C)NCC(O)COC(=O)c1ccc(O)cc1 (stereo not given)    -2.5
CC(=O)Nc1ccc(C(=O)OCC(O)CNC(C)C)cc1 (stereo not given)    4
COc1ccc(CCNCC(O)COC(=O)c2ccccc2C)cc1OC (stereo not given)    2
COc1ccc(CCNCC(O)COC(=O)c2ccc(C)cc2)cc1OC (stereo not given)    4
Cc1cccc(C(=O)OCC(O)CNC(C)(C)C)c1 (stereo not given)    -2
CC(=O)Nc1cccc(C(=O)OCC(O)CNC(C)C)c1 (stereo not given)    -2
CC(C)NCC(O)COC(=O)c1cccc2ccccc12 (stereo not given)    -2.5
Cc1ccccc1C(=O)OCC(O)CNC(C)(C)C (stereo not given)    -4
CC(C)(CNC(=O)N1CCOCC1)NCC(O)COC(=O)c1ccccc1F (stereo not given)    2
COc1ccc(CCNCC(O)COC(=O)c2ccccc2F)cc1OC (stereo not given)    2.5
CC(C)(CNC(=O)C1CCCCC1)NCC(O)COC(=O)c1ccccc1F (stereo not given)    3
CC(C)(C)NCC(O)COC(=O)c1ccccc1 (stereo not given)    -8
CCOC(=O)NCC(C)(C)NCC(O)COC(=O)c1ccccc1F (stereo not given)    1
CC(C)(C)NCC(O)COC(=O)c1ccc(O)cc1 (stereo not given)    9
Cc1ccc(C(=O)OCC(O)CNC(C)C)cc1 (stereo not given)    1
COc1ccc(CCNCC(O)COC(=O)c2ccc(F)cc2)cc1OC (stereo not given)    2
CC(C)NCC(O)COC(=O)c1ccccc1 (stereo not given)    -7
CC(C)(C)NCC(O)COC(=O)c1ccc([N+](=O)[O-])cc1Cl (stereo not given)    1
Cc1cccc(C(=O)OCC(O)CNC(C)C)c1 (stereo not given)    -3
CCC(C)(C)NCC(O)COC(=O)c1ccccc1F (stereo not given)    -5
CC(C)NCC(O)COC(=O)c1cccc([N+](=O)[O-])c1 (stereo not given)    -2.5
